# Papp at 4 h per entry
- test: Membrane Permeability Test, parallel artificial membrane permeability assay (PAMPA)
- Assay type: in vitro ADME
- measurement_parameters: pH 7.4, pH7.4, 37° C., read-out: Pe (pH7.4)

Worked examples follow.
Which Papp at 4 h is reported for this compound? CN[C@H](C(=O)N[C@H](C(=O)N(C)[C@H](/C=C(\C)C(=O)N[C@H](CCC(=O)O)C(=O)NCCN1C(=O)C=CC1=O)C(C)C)C(C)(C)C)C(C)(C)c1cn(C)c2ccccc12 [Example M25]
< 0.1 ×10⁻⁶ cm/s

Which Papp at 4 h is reported for this compound? CN[C@H](C(=O)N[C@H](C(=O)N(C)[C@H](/C=C(\C)C(=O)N[C@@H](CCCCNC(=O)CCCN1C(=O)C=CC1=O)C(=O)O)C(C)C)C(C)(C)C)C(C)(C)c1cn(C)c2ccccc12 [Example M27]
< 0.1 ×10⁻⁶ cm/s

More entries:
Which Papp at 4 h is reported for this compound? CNC(C(=O)N[C@H](C(=O)N(C)[C@H](/C=C(\C)C(=O)N[C@H](CCC(=O)NCCN1C(=O)C=CC1=O)C(=O)O)C(C)C)C(C)(C)C)C(C)(C)c1ccc(O)cc1 (stereo partly drawn) [Example M34]
2.7 ×10⁻⁶ cm/s

---

- test: Membrane Permeability Test, parallel artificial membrane permeability assay (PAMPA)
- Format: in vitro ADME
- measurement_parameters: pH 7.4, pH7.4, 37° C., read-out: Pe (pH7.4)
# Papp at 4 h per entry

Worked examples follow.
Which Papp at 4 h is reported for this molecule? CN[C@H](C(=O)N[C@H](C(=O)N(C)[C@H](/C=C(\C)C(=O)N[C@@H](CC(=O)NCCN1C(=O)C=CC1=O)C(=O)O)C(C)C)C(C)(C)C)C(C)(C)c1ccccc1 [Example M10]
< 0.1 ×10⁻⁶ cm/s

Which Papp at 4 h is reported for this molecule? CN[C@H](C(=O)N[C@H](C(=O)N(C)[C@H](/C=C(\C)C(=O)N[C@H](CC(=O)NCCN1C(=O)C=CC1=O)C(=O)O)C(C)C)C(C)(C)C)C(C)(C)c1cn(C)c2ccccc12 [Example M20]
< 0.1 ×10⁻⁶ cm/s

Which Papp at 4 h is reported for this molecule? CN[C@H](C(=O)N[C@H](C(=O)N(C)[C@H](/C=C(\C)C(=O)NCCCC[C@@H](NC(=O)CCCN1C(=O)C=CC1=O)C(=O)O)C(C)C)C(C)(C)C)C(C)(C)c1ccccc1 [Example M28]
< 0.1 ×10⁻⁶ cm/s

Which Papp at 4 h is reported for this molecule? CN[C@H](C(=O)N[C@H](C(=O)N(C)[C@H](/C=C(\C)C(=O)N[C@H](CCC(=O)NCCN1C(=O)C=CC1=O)C(=O)O)C(C)C)C(C)(C)C)C(C)(C)c1ccc(C(=O)O)cc1 [Example M36]
0.6 ×10⁻⁶ cm/s

More entries:
Which Papp at 4 h is reported for this molecule? CN[C@H](C(=O)N[C@H](C(=O)N(C)[C@H](/C=C(\C)C(=O)N[C@@H](CC(=O)O)C(=O)NCCN1C(=O)C=CC1=O)C(C)C)C(C)(C)C)C(C)(C)c1cn(C)c2ccccc12 [Example M21]
< 0.1 ×10⁻⁶ cm/s

Which Papp at 4 h is reported for this molecule? CN[C@H](C(=O)N[C@H](C(=O)N(C)[C@H](/C=C(\C)C(=O)NCCCCNC(=O)CCCCCN1C(=O)C=CC1=O)C(C)C)C(C)(C)C)C(C)(C)c1cn(C)c2ccccc12 [Comparative Example compound, reference compound]
16.9 ×10⁻⁶ cm/s

Which Papp at 4 h is reported for this molecule? CN[C@H](C(=O)N[C@H](C(=O)N(C)[C@H](/C=C(\C)C(=O)N[C@H](CCC(=O)NCCN1C(=O)C=CC1=O)C(=O)O)C(C)C)C(C)(C)C)C(C)(C)C1CCCCC1 [Example M33]
< 0.1 ×10⁻⁶ cm/s

Which Papp at 4 h is reported for this molecule? CN[C@H](C(=O)N[C@H](C(=O)N(C)[C@H](/C=C(\C)C(=O)N[C@H](CCC(=O)N[C@@H](CCCCNC(=O)CCN1C(=O)C=CC1=O)C(=O)O)C(=O)O)C(C)C)C(C)(C)C)C(C)(C)c1cn(C)c2ccc(F)cc12 [Example M26]
< 0.1 ×10⁻⁶ cm/s

Which Papp at 4 h is reported for this molecule? CN[C@H](C(=O)N[C@H](C(=O)N(C)[C@H](/C=C(\C)C(=O)N[C@H](CC(=O)NCCN1C(=O)C=CC1=O)C(=O)O)C(C)C)C(C)(C)C)C(C)(C)c1ccccc1 [Example M9]
< 0.1 ×10⁻⁶ cm/s

These data points were gathered from patent US11795195B2.
